Field: switch fluorescence ratio. Provide a value for each of the sequences that follow.
Tested on: ATP;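 further: ATP exposure 15 min at 22 °C before imaging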
Assay Comment: switch fluorescence ratio, 500 uM ATP over buffer (Cy3 cluster intensity, sum of 5 cycles each) (fold (ratio)); higher = stronger signal-on switching upon ATP binding; sequences stand for … in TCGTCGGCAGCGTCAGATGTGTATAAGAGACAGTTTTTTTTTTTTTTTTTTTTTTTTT…TC
Condition Context: aptamer strand: ATP DNA aptamer (quencher-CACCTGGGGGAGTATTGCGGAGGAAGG + anchor), 100 nM annealed; ATP concentration: 500 uM
Numbers only.

Below, each entry is followed by its recorded switch fluorescence ratio result.
CGGGACGGAG    0.997
CCGTAGGGCT    1.05
TCAAACAGCG    0.986
TGTTATAGAC    1.05
CGGGGGTGTT    0.998
AGGTGCAATT    1.47

Field: switch fluorescence ratio. Fill in for each record below.
1. ATAGAATAGG
2. GATAATAGGG
3. CAGTAATTGA
4. TTTTATTCAG
5. CTGGCATGGG

A.
1: 0.987; 2: 0.99; 3: 1; 4: 1; 5: 0.979

Field: switch fluorescence ratio. Fill in for each record below.
1. TGCAAATTCG
2. TGTGATGGAG
3. TTATCGAATT
4. ATTTAGGGGT
5. CATTTCGGCG
6. TTTGGTTGAG
7. CATGCGAATA
8. TCCCGCGGCT

A.
1. 0.999
2. 0.979
3. 1
4. 1.02
5. 0.999
6. 1
7. 1.1
8. 1.08

Field: switch fluorescence ratio. Fill in for each record below.
1. CATTTCTTG
2. AAAGGGGGAA

A.
1: 0.985; 2: 0.998
